tested-target: Replicase polyprotein 1ab (Severe acute respiratory syndrome coronavirus 2)
assay-procedure: Inhibition of N-terminal hexa-histidine tagged recombinant SARS-CoV-2 nsp14 RNA cap N7-methyltransferase activity expressed in Escherichia coli C2566 assessed as residual enzyme activity using GpppAC4 synthetic RNA and [3H]-SAM as substrate at 50 uM incubated for 30 mins by filter binding assay based liquid scintillation counter analysis relative to control
quantity-measured: Activity (%)
Write the answer as a number in %, unit excluded.

Ask: GET /values?readout=Activity&item= `COc1ccc(S(=O)(=O)NCCSC[C@H]2O[C@@H](n3cnc4c(N)ncnc43)[C@H](O)[C@@H]2O)c([N+](=O)[O-])c1`
Result: 0

Ask: Moving on to `Cc1cccc(S(=O)(=O)NCc2cn(C[C@H]3O[C@@H](n4cnc5c(N)ncnc54)[C@H](O)[C@@H]3O)nn2)c1`
Result: 82

Ask: Moving on to `Cc1ccc(S(=O)(=O)NCc2cn(C[C@H]3O[C@@H](n4cnc5c(N)ncnc54)[C@H](O)[C@@H]3O)nn2)cc1`
Result: 50

Ask: Moving on to `Nc1ncnc2c1ncn2[C@@H]1O[C@H](CSCCNS(=O)(=O)c2ccc(C(F)(F)F)cc2)[C@@H](O)[C@H]1O`
Result: 7

Ask: Moving on to `CCN(CCNS(=O)(=O)c1ccc(C#N)cc1)C[C@H]1O[C@@H](n2cnc3c(N)ncnc32)[C@H](O)[C@@H]1O`
Result: 67

Ask: Moving on to `Cc1ccc(S(=O)(=O)NCCS(=O)(=O)C[C@H]2O[C@@H](n3cnc4c(N)ncnc43)[C@H](O)[C@@H]2O)cc1`
Result: 38

Ask: Moving on to `Nc1ncnc2c1ncn2[C@@H]1O[C@H](CS(=O)(=O)CCNS(=O)(=O)c2ccc(C(F)(F)F)cc2)[C@@H](O)[C@H]1O`
Result: 37

Ask: Moving on to `CCN(CCNS(=O)(=O)c1ccc(C)cc1)C[C@H]1O[C@@H](n2cnc3c(N)ncnc32)[C@H](O)[C@@H]1O`
Result: 66

Ask: Moving on to `N#Cc1ccc(S(=O)(=O)NCCS(=O)(=O)C[C@H]2O[C@@H](n3cnc4c(N)ncnc43)[C@H](O)[C@@H]2O)cc1`
Result: 42

Ask: Moving on to `CCN(Cc1cn(C[C@H]2O[C@@H](n3cnc4c(N)ncnc43)[C@H](O)[C@@H]2O)nn1)S(=O)(=O)c1ccc(C(F)(F)F)cc1`
Result: 47

Ask: Moving on to `CCN(Cc1cn(C[C@H]2O[C@@H](n3cnc4c(N)ncnc43)[C@H](O)[C@@H]2O)nn1)S(=O)(=O)c1ccc(C)cc1`
Result: 59

Ask: Moving on to `Nc1ncnc2c1ncn2[C@@H]1O[C@H](CSCCNS(=O)(=O)c2ccc([N+](=O)[O-])cc2)[C@@H](O)[C@H]1O`
Result: 9

Ask: Moving on to `CCN(Cc1cn(C[C@H]2O[C@@H](n3cnc4c(N)ncnc43)[C@H](O)[C@@H]2O)nn1)S(=O)(=O)c1ccc(Cl)cc1`
Result: 69

Ask: Moving on to `Nc1ncnc2c1ncn2[C@@H]1O[C@H](CSCCNS(=O)(=O)c2ccccc2)[C@@H](O)[C@H]1O`
Result: 13

Ask: Moving on to `Nc1ncnc2c1ncn2[C@@H]1O[C@H](CSCCNS(=O)(=O)c2ccccc2[N+](=O)[O-])[C@@H](O)[C@H]1O`
Result: 0
